Biological target: Glucose-dependent insulinotropic receptor (Homo sapiens)
Sequence (Q8TDV5 whole entry): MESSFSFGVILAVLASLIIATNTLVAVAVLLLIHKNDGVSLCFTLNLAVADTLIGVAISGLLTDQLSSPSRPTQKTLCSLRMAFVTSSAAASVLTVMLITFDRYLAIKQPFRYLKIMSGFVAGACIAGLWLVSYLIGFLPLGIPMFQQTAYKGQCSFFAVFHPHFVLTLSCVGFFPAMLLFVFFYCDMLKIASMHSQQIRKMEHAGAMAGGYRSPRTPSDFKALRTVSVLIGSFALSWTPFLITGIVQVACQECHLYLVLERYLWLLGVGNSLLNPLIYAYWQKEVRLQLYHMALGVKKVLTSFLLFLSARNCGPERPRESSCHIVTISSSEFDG
Assay: Agonist activity at human GPR119 stably transfected in CHO-K1 cells assessed as increase in cAMP stimulation after 1 hr by enzyme immunoassay
Assay type: functional, cell-based
Settings: read-out: EC50
Field 'label' (enum: true / false). Set to true when EC50 is strictly under 800 nM; else false.

>  <structure>
CC(C)COC(=O)N1CCC(Oc2cc(Oc3cccc(/C=C4\SC(=O)NC4=O)c3)ncn2)CC1

>  <assigned label>
true

$$$$
>  <structure>
COC(=O)N1CCC(Oc2ncnc(Oc3ccc(/C=C4\SC(=O)NC4=O)cc3)c2C)CC1

>  <assigned label>
false

$$$$
>  <structure>
Cc1c(Oc2cccc(/C=C3\SC(=O)NC3=O)c2)ncnc1OC1CCN(C(=O)OCc2ccccc2)CC1

>  <assigned label>
true

$$$$
>  <structure>
CC(C)c1noc(C2CCN(c3ncnc(Nc4ccc(S(C)(=O)=O)cc4F)c3[N+](=O)[O-])CC2)n1

>  <assigned label>
true

$$$$
>  <structure>
COC(=O)N1CCC(Oc2cc(Oc3cccc(/C=C4\SC(=O)NC4=O)c3)ncn2)CC1

>  <assigned label>
false

$$$$
>  <structure>
CCOC(=O)N1CCC(Oc2ncnc(Oc3ccc(/C=C4\SC(=O)NC4=O)cc3)c2C)CC1

>  <assigned label>
true

$$$$
>  <structure>
CC(C)COC(=O)N1CCC(Oc2cc(Oc3ccc(/C=C4\SC(=O)NC4=O)cc3)ncn2)CC1

>  <assigned label>
true

$$$$
>  <structure>
O=C1NC(=O)/C(=C/c2cccc(Oc3cc(OC4CCN(C(=O)OCc5ccccc5)CC4)ncn3)c2)S1

>  <assigned label>
true

$$$$
>  <structure>
O=C1NC(=O)/C(=C/c2ccc(Oc3cc(OC4CCN(C(=O)OCc5ccccc5)CC4)ncn3)cc2)S1

>  <assigned label>
true

$$$$
>  <structure>
CC(C)(C)OC(=O)N1CCC(Oc2cc(Oc3cccc(/C=C4\SC(=O)NC4=O)c3)ncn2)CC1

>  <assigned label>
true

$$$$
>  <structure>
Cc1c(Oc2ccc(/C=C3\SC(=O)NC3=O)cc2)ncnc1OC1CCN(C(=O)OCC(C)C)CC1

>  <assigned label>
true

$$$$

* * *

Test: Tmax in Wistar rat at 10 mg/kg, po up to 24 hrs
Type: ADME, organism-based
Conditions: in vivo

>  <structure>
Cc1c(Oc2cccc(/C=C3\SC(=O)NC3=O)c2)ncnc1OC1CCN(C(=O)OC(C)(C)C)CC1

>  <result unit>
h

>  <Tmax>
1.5

$$$$

* * *

Experiment: AUC(0 to t) in Wistar rat at 10 mg/kg, po up to 24 hrs
Assay type: ADME, organism-based
Parameters: route oral, dose 10 mg/kg, time <=24
Settings: in vivo

>  <structure>
Cc1c(Oc2cccc(/C=C3\SC(=O)NC3=O)c2)ncnc1OC1CCN(C(=O)OC(C)(C)C)CC1

>  <AUC(0-t) at 24 h [ng·h/mL]>
1770

$$$$

* * *

Assay: Tmax in Sprague-Dawley rat at 25 mg/kg, po up to 24 hrs
Type: ADME, organism-based
Conditions: in vivo
Reported values of Tmax for individual entries

>  <structure>
Cc1c(Oc2ccc(/C=C3\SC(=O)NC3=O)cc2)ncnc1OC1CCN(C(=O)OC(C)(C)C)CC1

>  <result unit>
h

>  <Tmax>
2.25

$$$$
>  <structure>
Cc1c(Oc2cccc(/C=C3\SC(=O)NC3=O)c2)ncnc1OC1CCN(C(=O)OC(C)(C)C)CC1

>  <result unit>
h

>  <Tmax>
1.75

$$$$
